- Tested on: response to skin puncture
- measurement.protocol: Anaesthesia by infiltration (subcutaneous, back puncture)
- Format: in vivo, guinea pigs
- condition.parameters: analogous to therapeutic index; DL50 i.p.
Categorize each record by its Infiltration anaesthesia DL50/CE50 using Low (below 60), Mid (60 to below 300), High (300 or more)

Challenge: Please indicate the class for Cc1cccc(C)c1NC(=O)c1ccc(CN2CCCCC2)cc1 [Compound 9] based on its Infiltration anaesthesia DL50/CE50.
Response given: High

Challenge: Please indicate the class for Cc1cccc(C)c1NC(=O)c1ccccc1CN1CCOCC1 [Compound 10] based on its Infiltration anaesthesia DL50/CE50.
Response given: Mid

Challenge: Please indicate the class for CCN(CC)Cc1ccccc1C(=O)Nc1c(C)cccc1C [Compound 1] based on its Infiltration anaesthesia DL50/CE50.
Response given: Mid

Challenge: Please indicate the class for Cc1cccc(C)c1NC(=O)c1ccccc1CN1CCCC1 [Compound 4] based on its Infiltration anaesthesia DL50/CE50.
Response given: Mid

Challenge: Please indicate the class for Cc1cccc(C)c1NC(=O)c1cccc(CN2CCOCC2)c1 [Compound 11] based on its Infiltration anaesthesia DL50/CE50.
Response given: Mid

Challenge: Please indicate the class for Cc1cccc(C)c1NC(=O)c1ccc(CN2CCCC2)cc1 [Compound 6] based on its Infiltration anaesthesia DL50/CE50.
Response given: Low

Challenge: Please indicate the class for Cc1cccc(C)c1NC(=O)c1ccccc1CN1CCCCC1 [Compound 7] based on its Infiltration anaesthesia DL50/CE50.
Response given: High

Challenge: Please indicate the class for CCN(CC)Cc1ccccc1C(=O)Nc1c(C)cccc1Cl [Compound 13] based on its Infiltration anaesthesia DL50/CE50.
Response given: Low

Challenge: Please indicate the class for CCN(CC)Cc1ccc(C(=O)Nc2c(C)cccc2C)cc1 [Compound 3] based on its Infiltration anaesthesia DL50/CE50.
Response given: Low

* * *

- Test system: corneal reflux
- measurement.protocol: Surface anaesthesia (corneal reflux, conjunctival sac)
- condition.parameters: concentration in percent achieving 50% of total responses; pH 7 saline; hydrochloride salts
- From the text: The data reported hereinbelow relate in every instance to the hydrochloride salts of the individual compounds. The surface anaesthesia has been determined in rabbits according to the method of M. R. A. Change and H. Lobstein (J. Pharmacol. Exper. Ther., 82, 203, 1944). […]
Please provide measured Surface anaesthesia CE50 for the entries that follow.
Numbers only here, please. The scale is %.

Lab note: `CCN(CC)Cc1ccccc1C(=O)Nc1c(C)cccc1Cl` gave Surface anaesthesia CE50 of 0.60

Lab note: `CCN(CC)Cc1ccc(C(=O)Nc2c(C)cccc2C)cc1` gave Surface anaesthesia CE50 of 4.78

Lab note: `CCN(CC)Cc1ccccc1C(=O)Nc1c(C)cccc1C(=O)OC` gave Surface anaesthesia CE50 of 0.41

Lab note: `Cc1cccc(C)c1NC(=O)c1ccccc1CN1CCCCC1` gave Surface anaesthesia CE50 of 0.30

Lab note: `Cc1cccc(C)c1NC(=O)c1ccc(CN2CCCCC2)cc1` gave Surface anaesthesia CE50 of 1.92

* * *

- Test system: reflux of contraction of the lower limbs (lumbar plexus)
- measurement.protocol: Anaesthesia by conduction (lumbar plexus)
- Type: in vivo, frogs
- condition.parameters: c = 1%; DL50 i.p.
Quick rule for you: Conduction anaesthesia DL50/t' at 60 or higher means criterion met, lower means criterion not met.

Challenge: Tell me whether Conduction anaesthesia DL50/t' is at least 60 here: `Cc1cccc(C)c1NC(=O)c1cccc(CN2CCOCC2)c1`
Response given: criterion not met

Challenge: Tell me whether Conduction anaesthesia DL50/t' is at least 60 here: `Cc1cccc(C)c1NC(=O)c1ccccc1CN1CCCCC1`
Response given: criterion met

Challenge: Tell me whether Conduction anaesthesia DL50/t' is at least 60 here: `CCN(CC)Cc1cccc(C(=O)Nc2c(C)cccc2C)c1`
Response given: criterion met

Challenge: Tell me whether Conduction anaesthesia DL50/t' is at least 60 here: `CCN(CC)Cc1ccccc1C(=O)Nc1c(C)cccc1C(=O)OC`
Response given: criterion not met

Challenge: Tell me whether Conduction anaesthesia DL50/t' is at least 60 here: `Cc1cccc(C)c1NC(=O)c1cccc(CN2CCCC2)c1`
Response given: criterion met

Challenge: Tell me whether Conduction anaesthesia DL50/t' is at least 60 here: `Cc1cccc(C)c1NC(=O)c1ccc(CN2CCOCC2)cc1`
Response given: criterion not met

Challenge: Tell me whether Conduction anaesthesia DL50/t' is at least 60 here: `CCN(CC)Cc1ccccc1C(=O)Nc1c(C)cccc1Cl`
Response given: criterion not met

Challenge: Tell me whether Conduction anaesthesia DL50/t' is at least 60 here: `Cc1cccc(C)c1NC(=O)c1ccccc1CN1CCOCC1`
Response given: criterion not met

Challenge: Tell me whether Conduction anaesthesia DL50/t' is at least 60 here: `Cc1cccc(C)c1NC(=O)c1ccccc1CN1CCCC1`
Response given: criterion not met

Challenge: Tell me whether Conduction anaesthesia DL50/t' is at least 60 here: `CCN(CC)Cc1ccccc1C(=O)Nc1c(C)cccc1C`
Response given: criterion not met

Challenge: Tell me whether Conduction anaesthesia DL50/t' is at least 60 here: `Cc1cccc(C)c1NC(=O)c1ccc(CN2CCCCC2)cc1`
Response given: criterion not met

Challenge: Tell me whether Conduction anaesthesia DL50/t' is at least 60 here: `CCN(CC)Cc1ccc(C(=O)Nc2c(C)cccc2C)cc1`
Response given: criterion not met

Challenge: Tell me whether Conduction anaesthesia DL50/t' is at least 60 here: `Cc1cccc(C)c1NC(=O)c1cccc(CN2CCCCC2)c1`
Response given: criterion not met

Challenge: Tell me whether Conduction anaesthesia DL50/t' is at least 60 here: `Cc1cccc(C)c1NC(=O)c1ccc(CN2CCCC2)cc1`
Response given: criterion met
